Test: Primary qHTS for delayed death inhibitors of the malarial parasite plastid, 48 hour incubation
Conditions: P. falciparum luciferase growth in erythrocytes; series mostly up to 28.7 µM
The whole screen tested about 310,000 compounds, of which about 18,000 (5.8%) were called active. About 22% were inconclusive and are not listed. The call rests on the fitted dose curve; in most records, active means well fitted inhibition curve with a large enough effect; inconclusive means small, poorly fitted or top-dose-only effect, or another doubt; inactive means no such curve, though single readings can be large or run the other way. The sample holds actives, similar compounds and a random draw of the others, so the mix is not that of the screen.
Mark one answer only. Choices: active, inactive

>>> print(df.to_string())
                                   compound     group
0  O=C(CSC1=NS(=O)(=O)c2cc(F)ccc2N1)Nc1ccccc1F  inactive
1  CCOC(=O)N1CCN(S(=O)(=O)N2CCCC(C(=O)NCCCN3CCC(C)CC3)C2)CC1 (configuration not stated)  inactive

// next entry
Status in this test for COc1ccc(/C=C/C(=O)NC(=S)N2CCCC(C(N)=O)C2)cc1 (configuration not stated) ?
inactive
